- Procedure text: protein stability index of a GFP-peptide fusion (yeast GPS) (PSI 1-4); higher = more stable; sorted into four equal gates, so the index is relative within each strain
- Test settings: doa10∆
Listed next: entries and their corresponding protein stability index.
Observation type: protein stability index

Residues | Observed
AEKKVVRLTSRQRGRIA [RPL17A] | 2.88
SELFDEWFEQNNSEQDQ [ISW2] | 2.49
RALFETKLNLHCVIEDD [RRI1] | 2.36
LDSGDDQPQSSEAKRTK [BRR2] | 3.31
AKLHRISPKIWCAGAGT [PUP1] | 1.93
SLSNPNSTATMQHNPLA [PGD1] | 2.86
RRQAVDVSPLRRVNQAI [RPS5] | 2.63
SRTLILSILNEIKKVTQ [SIN4] | 3.05
TQTGQNTGPSTGGLFGA [YGL172W/NUP49] | 3.47
SPYGNLQNDLIHKIQND [RPN5] | 2.02
RHHRKTEKEEDAELMAD [ISW2] | 3.5
RRSKQLINLAKTRVGSV [RPC82] | 3.25
IYSPEGLRLDGRRWNEL [SKI6] | 1.42
SIQMEFMLRKQDPKTLV [SSN2] | 1.73
GTAIGAIGAQSIGEPGT [RPO31] | 3.12

---

- Procedure text: protein stability index of a GFP-peptide fusion (yeast GPS) (PSI 1-4); higher = more stable; sorted into four equal gates, so the index is relative within each strain
- Test settings: san1∆

Residues | protein stability index
RVPIRSEYKVAFPHLYN [PRP8] | 2.34
KIQETELKIRSKTENVR [RPT6] | 2.23
EEKEEEAAEESDDDMGF [RPP1B] | 3.09
STYLPKLISAFDDLEVE [RRP42] | 2.58
VRKELRGRAVVLMGKNT [RPP0] | 2.12
TGTARLNSMPNNVNEYS [YJL039C/NUP192] | 3.01
QQNIKFRRDFLLREYDI [YJL039C/NUP192] | 2.9

---

Each entry below lists one item and its recorded protein stability index value.
- Procedure text: protein stability index of a GFP-peptide fusion (yeast GPS) (PSI 1-4); higher = more stable; sorted into four equal gates, so the index is relative within each strain
- Test settings: ubr1∆
Observation type: protein stability index

Residues | Observed
LKSSLADVLSILAMTYS [RPN1] | 1.96
VLVASAKGLQTVVVEED [RPL31A] | 2.25
LARRTDAPFNKVVLKAL [RPL18A] | 1.45
DQDKVNFASGDNNTASN [RPB3] | 2.5
ALDYLIPPPMPKNQQYR [MED7] | 2.6
NKLTILGRDYPIEVDEE [IRR1] | 2.64
TLAEVKAAGLTAAYART [RPL13A] | 1.54
MDRTSLRKQYSAIDEEI [SMC3] | 2.63
RRQAVDVSPLRRVNQAI [RPS5] | 2.75
KTCQWYSEHLKPYDINV [DIS3] | 2.84
KITIGIQRTTESLILKW [RGR1] | 1.66
ISLHENKLSGILADEMG [ISW2] | 2.44
TIKISTNDDSIKNLTVQ [RGR1] | 2.96
ATSQYLKQDLKKISSFK [YGL172W/NUP49] | 3.06
LGTLVNQKTSAVAALTE [RPL8A] | 2.25
YKVDNMTRILPQQSRYI [RPN2] | 2.56
INDPTNKEYTLVHGIFG [SIN4] | 1.94
NILWAIYNSASKASMQK [YCS4] | 2.18
MFLEFQSTQTDLEKTER [SMC2] | 2.64
ISNNLALVFAALEHLKN [SRP68] | 2.09
KLAKNLQIGDVVERHLE [RPO31] | 3.2
NKYPELLGKDNEDDALI [AAR2] | 3.02
VLIDLLNWFRTTNMNVN [RGR1] | 1.92
MVMAGSKGSFINIAQMS [RPO21] | 1.42
ICYNKKTEYVLNDLNHL [REC8] | 1.88
SSIENNINNNINSTKNG [MED2] | 3.17
RYLVGGNKIQKVLLDSK [RPS7A] | 1.7
ALQKGLKDLMDLCDVVE [RPC19] | 3.02
FLELTRRADVKTATVKI [RPL38] | 1.2
QEKESQIQLAESELSLL [SMC4] | 2.71
EAAKLLVDSLATFTSIE [RPN7] | 2.68
QGRRNSRNFSTRDEETT [SIR4] | 2.98
LRQQYEIELKKLPKVYK [SWI1] | 2.75
RQNKVQHQRIVAFVCSP [RPN10] | 1.42
PRLSHLSLTAVPSFLRP [GRR1] | 2.18
RRRKGISTGGFMSNDGP [SNU114] | 1.33
PVDITMMENYQNISPVY [PRP8] | 2.06
SAHQSPIMQTQMPLNSN [SNF2] | 2.17
NANTVFAGSNNQPHQSQ [YOR098C/NUP1] | 3.07
LETDGVNLSEVMTVPGI [RPO21] | 3.34
VYDFYGRHVATCSSDQH [YGL100W/SEH1] | 2.2
ESLVHSALCILKEQELV [BRR2] | 2.51
LRADKLYEKLKQEIMMS [ISW2] | 1.41
MPDEFNTLYTAIITDDL [SRP72] | 2.64
LESTKAETDYVDPKRLA [DSN1] | 3.26
AEKKVVRLTSRQRGRIA [RPL17A] | 1.14
VQCPTVIKLAKYPDYFP [ARP9] | 1.82
SDDIISQVDPITLFVLV [FAS2] | 1.23
LCQKSPVMADLNGGLQF [FAS2] | 2.53
GLGETSGDNHTQQSHEQ [RPT4] | 3.23
AGVVQDIGSDPTLPRSD [RPB9] | 2.94
YHNKHMMCDFGTGNNNK [DIB1] | 2.98
RRHRNPDLQFIVISLKN [SMC1] | 2.13
SSEYETINISLSFSWAI [NUT1] | 2.4
KDFLKAVDKVISGYKKF [RPT1] | 3.33
KGNVGFVFTNEPLTEIK [RPP0] | 3.58
TRLPAFERPAVKEEKED [RPC53] | 3.46
VQLKDANSQIQAYEEII [YIL149C/MLP2] | 3.45
QKEEGRSFTKAIEDAKK [YLR335W/NUP2] | 2.8
DPLAKVNVLLQSYFSQL [BRR2] | 1.54
